Hey, just so you know, these numbers are from ChEMBL document CHEMBL5143680.

system: HepG2; assay: Cytotoxicity against human HepG2 cells measured after 72 hrs by MTT assay; assay type: functional, cell-based; details: HepG2, 72 h
pIC50: −log10 of the molar value.

SMILES RECORD	TESTED ON	pIC50
CC(=O)O[C@@H]1/C=C/[C@](C)(O)C[C@@H](C)C/C=C/[C@H]2C=C(C(=O)O)[C@@H](C)[C@H]3[C@H](Cc4ccccc4)NC(=O)[C@]321	HepG2	< 4.30
C=C1[C@@H](C)[C@H]2[C@H](Cc3ccccc3)NC(=O)[C@]23[C@H](OC(C)=O)/C=C/[C@](C)(O)C[C@@H](C)C/C=C/[C@H]3[C@@H]1O	HepG2	< 4.30
CC1=C[C@@H]2/C=C/C[C@H](C)C[C@H](C)[C@@H]3O[C@H]3C(=O)[C@]23C(=O)N[C@@H](Cc2ccccc2)[C@@H]3[C@@H]1C	HepG2	< 4.30
